Cited source for all entries: patent US20210253718A1

Molecular target: T1, FZD2 CRD (Homo sapiens, UniProt Q14332)
T1 construct: D35-P161; GPI anchor signal (C); expressed in transfected cells; host or cells: CHO cells, lentiviral pLenti-puro
Assay: Immunofluorescence of anti-FZD5 Fab binding to CHO cells overexpressing Frizzled CRD
Parameters: key: −: no binding; +: very weak binder; ++: weak binder; +++: good binder; ++++: very good binder
Description: Plasmids: pLCKO lentiviral vector used for knockout (TKO) library construction and expression of individual gRNAs was constructed as described previously (Hart et al., 2015). Briefly, single guide RNA (sgRNA) scaffold was amplified from px330 (Addgene 42230) and cloned into pLKO.TRC005 lentiviral vector (Broad Institute, Cambridge, Mass.) using AgeI/EcoRI restriction sites. BfuAI sites were added at the 5′ end of the sgRNA scaffold for cloning the TKO library or individual gRNA target sequences. […]
reported_endpoint: Immunofluorescence binding, Frizzled CRD overexpressed on CHO cells: FZD2

## Input What value of Immunofluorescence binding, Frizzled CRD overexpressed on CHO cells: FZD2 has been reported for the following molecule? Fab-2921: anti-FZD5 Fab with antibody variable region Fv-2921; CDR SEQ ID NOs: 35, 36, 60, 98, 136, 162 (antibody, V domains shown) VH: EVQLVESGGGLVQPGGSLRLSCAASGFNISYYYIHWVRQAPGKGLEWVASIYPSSGSTSYADSVKGRFTISADTSKNTAYLQMNSLRAEDTAVYYCARGAMDYWGQGTLVTVSS VL: DIQMTQSPSSLSASVGDRVTITCRASQSVSSAVAWYQQKPGKAPKLLIYSASSLYSGVPSRFSGSRSGTDFTLTISSLQPEDFATYYCQQWYAGSLITFGQGTKVEIK
## Output −

## Input What value of Immunofluorescence binding, Frizzled CRD overexpressed on CHO cells: FZD2 has been reported for the following molecule? Fab-2911: anti-FZD5 Fab with antibody variable region Fv-2911; CDR SEQ ID NOs: 35, 36, 50, 89, 126, 163 (antibody, V domains shown) VH: EVQLVESGGGLVQPGGSLRLSCAASGFNIYYSSMHWVRQAPGKGLEWVAYIYPYSGYTSYADSVKGRFTISADTSKNTAYLQMNSLRAEDTAVYYCARYFWWYGFDYWGQGTLVTVSS VL: DIQMTQSPSSLSASVGDRVTITCRASQSVSSAVAWYQQKPGKAPKLLIYSASSLYSGVPSRFSGSRSGTDFTLTISSLQPEDFATYYCQQGPWYPFTFGQGTKVEIK
## Output +++
